# Tested on: THP-1-HMGB1-Lucia cells
# assay-remarks: TBZ-induced necroptosis screening by HMGB1-luciferase release
# Format: cell-based, human
# conditions: Homo sapiens; 20 μM compound with TBZ, 8 h; TBZ alone = 100, DPBS = 0; read-out: % Inhibition (luciferase activity relative to TBZ-treated supernatant)
Counter-ions that a name gives are not always drawn.
# maps each entry to its activity at 20 µM

| molecule | measured-on | activity at 20 µM [%] |
| --- | --- | --- |
| Nc1ccc2cc3ccc(N)cc3nc2c1 [S55, Proflavine hemisulfate] | THP-1-HMGB1-Lucia cells | 3.5 |
| C=C(CC)C(=O)c1ccc(OCC(=O)O)c(Cl)c1Cl | THP-1-HMGB1-Lucia cells | 3 |
| O=C1c2c(O)ccc(O)c2C(=O)c2c(NCCNCCO)ccc(NCCNCCO)c21 [S58, Mitoxantrone hydrochloride] | THP-1-HMGB1-Lucia cells | 7.6 |
| Cc1ncc(-c2ccnc(Nc3ccc(S(C)(=O)=O)cc3)n2)n1C(C)C | THP-1-HMGB1-Lucia cells | 0 |
| NC(CO)(CO)CO | THP-1-HMGB1-Lucia cells | 11 |
| COC(=O)[C@]12CCC(C)(C)C[C@H]1[C@H]1C(=O)C=C3[C@@]4(C)C=C(C#N)C(=O)C(C)(C)[C@@H]4CC[C@@]3(C)[C@]1(C)CC2 | THP-1-HMGB1-Lucia cells | 0 |
| CN(C)CCOC(c1ccccc1)c1ccccc1 [S70, Diphenhydramine] | THP-1-HMGB1-Lucia cells | 19.1 |
| O=C(NC1CCNCC1)c1[nH]ncc1NC(=O)c1c(Cl)cccc1Cl | THP-1-HMGB1-Lucia cells | 19.5 |
